compound	melting point
CC(C)(C)C(NC(=O)c1ccc(Cl)cc1)NC(=N[N+](=O)[O-])Nc1cccnc1 (stereo not given)	203 to 204 °C
CCN(CC)CCOc1ccc(Nc2ncc3c(n2)N(C)C(=O)N(C)C3)cc1	186 °C
COc1ccc2c(ccn3c(C)nnc23)c1	183 to 184 °C
CC(C)(C)c1ccc(-c2cccc(-c3ccc(C(C)(C)C)cc3)c2N)cc1	106 °C
O=c1[nH]cccc1CCCCCCCCCCCCc1ccc[nH]c1=O	210 °C
CC(C)(C)OC(=O)c1ccc(N2CCC(N)CC2)cc1	89 to 91 °C
C#CCCC(=O)N1c2ccccc2C(=O)Nc2cccnc21	179 to 180 °C
CCCCCc1c([N+](=O)[O-])cc([N+](=O)[O-])c2nc(C(F)(F)F)[nH]c12	86 to 88 °C
Oc1ccc(-c2nnc(CSCCOc3ccccc3)s2)cc1	127 to 128 °C
CS(=O)(=O)c1ccc(-c2cnn(CC(F)(F)F)c(=O)c2N)cc1	> 260 °C

###

reportedProperty: melting point

compound	reportedProperty	obsValue
C#CCOc1ncc(F)cc1OC	melting point	67 to 69 °C
O=C1CCOc2c1ccc(O)c2CCCc1ccccc1	melting point	110 to 112 °C
O=C(O)C1(CSc2ccc(Oc3ccc(Br)cc3)cc2)CCOCC1	melting point	143 °C
c1ccc(-c2nc(COc3ccc(CCCn4ccnc4)cc3)co2)cc1	melting point	111 to 112 °C
CN1CCN=C1C(Br)(Br)[N+](=O)[O-]	melting point	88 to 90 °C
CC(C)Cn1c(=O)n(C)c(=O)c2c(SC(C)C)c(Cn3cnc4ccccc43)sc21	melting point	195 °C
COc1cc(C=O)c2oc(-c3ccc(OC)c(F)c3)cc2c1	melting point	161 to 163 °C
Cc1cc(C)nc(NC(=O)NS(=O)(=O)c2csnc2Cl)n1	melting point	136 to 140 °C
COc1ccc2cc(C#N)sc2c1	melting point	82 to 83 °C
CCCCn1nc(C(C)(F)F)nc1Cc1ccc(-c2ccccc2-c2nnn[nH]2)nc1	melting point	180 to 182 °C
COc1ccc2c3c1OC1CCCC4(O)C(C2)N(C(=O)C2CCC2)CCC314 (centres undefined)	melting point	140 °C
COc1cc2c(cc1Nc1ncc(Cl)c(Nc3ccc(C#N)cc3OC)n1)CCN(CC(=O)N(C)C)CC2	melting point	92 to 105 °C
O=C(C=Cc1ccccc1)NNC(=O)c1ccccc1O	melting point	271 °C
Nc1ccc(CN2CCC(=O)C(=C3SC=CS3)C2=O)cc1	melting point	156 to 158 °C
Cc1nc(C)c(Cl)c(NCc2nccc(SCCOCCn3c([N+](=O)[O-])cnc3C)c2C)n1	melting point	160 to 163 °C
COC(=O)CCCc1cc2nc(Cl)ccc2n1S(=O)(=O)c1cc(OC)ccc1OC	melting point	102 °C
CCOC(=O)c1cn(-c2ccc(C(F)(F)F)cn2)nc1C1CCCCC1	melting point	99 to 100 °C
CCCCN1CCN(c2nc(C)c(C(=O)NCc3cccnc3)s2)C1=O	melting point	109 to 111 °C
CCOC(=O)c1ccc(-c2nc3ccccc3s2)cc1	melting point	132 to 134 °C
CCN1c2ncccc2C(SC)=Nc2c(C)cc(C)nc21	melting point	130 to 132 °C
CCCC1CC2=CC(=O)CCC2C2CCC3(C)C(OC(C)=O)CCC3C12 (centres undefined)	melting point	97 to 100 °C
CCOc1c(C#N)c(C#N)c(OCC)c2ccccc12	melting point	167 °C
CC(=O)OC1C(Oc2cc(C)cc(O)c2C(=O)CCc2ccc3occc3c2)OC(CO)C(O)C1OC(C)=O (centres undefined)	melting point	151 to 153 °C
Cc1sc2cc(CC(=O)O)ccc2c1Br	melting point	150 to 152 °C
CCCCn1ccc(-c2ccc(Oc3ccnc(C)c3)c(F)c2)c(C#N)c1=O	melting point	125 °C
Nc1ccc2oc(-c3cccc(O)c3)cc(=O)c2c1	melting point	157 to 159 °C
CCCCCCCCNC(=O)CCCC(C)(C)c1ccc(O)cc1O	melting point	110 to 113 °C
Oc1ccc2c(-c3ccc4c(O)cccc4c3)noc2c1	melting point	275 to 277 °C
COc1cc(C(CC(=O)O)N2Cc3ccccc3C2=O)cc(OC)c1OC (centres undefined)	melting point	162 to 164 °C
CC(=O)OCC(=O)C1(O)CCC2C3CCC4=CC(=O)C=CC4(C)C3(F)C(O[Si](C)(C)C)CC21C (centres undefined)	melting point	203 to 204 °C
O=C(O)C1=Cc2cc(Oc3ccccc3)ccc2OC1C(F)(F)F (centres undefined)	melting point	185 to 186 °C
Cc1cc(C#N)cc(Oc2[nH]c(=O)[nH]c(=O)c2C(C)C)c1	melting point	272 to 275 °C
CC(=O)c1ccc2c(c1)ncn2-c1cccc(N2CCN(C(C)=NO)CC2)c1	melting point	193 to 195 °C
COC(=O)C(C)(Oc1cccc(Oc2c(Cl)cc(C(F)(F)F)cc2Cl)c1)[N+](=O)[O-] (centres undefined)	melting point	78 °C
C=C(CC1(CC(=C)C(=O)OC(C)(C)C)C(=O)N(C)C(=O)N(C)C1=O)C(=O)OC(C)(C)C	melting point	90 to 91 °C
O=C(OC(c1ccccc1)c1ccccc1)C1=CSC2C(=Cc3cn4c(n3)SCC4)C(=O)N12 (centres undefined)	melting point	160 to 161 °C
Cc1ccccc1-c1nn(C(C)(C)C(=O)N(C)C)cc1C	melting point	145 to 147 °C
CC(C)c1nc(COC(=O)N[C@H](C(=O)N[C@@H](Cc2ccccc2)C[C@H](O)[C@H](Cc2ccccc2)NC(=O)OCc2cncs2)C(C)C)cs1	melting point	142 to 145 °C
CCCCc1nc2cccc(C(=O)O)c2n1Cc1ccc(-c2c(-c3nnn[nH]3)oc3ccccc23)cc1	melting point	194 to 195 °C

###

List of melting point values.

compound	melting point
CN(C)Cc1nnc2n1-c1ccc(Cl)cc1N(c1ccccc1)C(=O)C2	232 to 234 °C
OCCNc1nc(NCc2ccccc2)c2ncc(Nc3ncncn3)cc2n1	202 to 203 °C
O=C(CCCCCBr)Nc1ccc(C(F)(F)F)cc1	96 to 98 °C
N#CC1=Nc2ccc(Cl)cc2Oc2ccccc21	185 to 188 °C
O=C(OCc1ccccc1O)c1cc(O)c2c(c1)C(=O)c1cccc(O)c1C2=O	125 to 130 °C
Cc1cccc(C)c1N=CNc1c(C)cccc1C	174 to 176 °C
Oc1cccc2c1CCC(c1ccccn1)O2 (stereo not drawn)	246 to 248 °C
CC(=O)c1c[nH]c2cn[nH]c2c1=O	> 320 °C
CCCCCCOc1ccc(-c2ncc(C#N)c(Cl)n2)cc1	133 °C
Cn1cc(C(=O)NC(=O)N2CC2C#N)c([N+](=O)[O-])n1 (stereo not drawn)	58 to 64 °C
CCCN(CCc1coc2c(OC)cccc12)C1COc2c(F)ccc(C(N)=O)c2C1 (stereo not drawn)	125 to 132 °C
CCCCCCCOC1CCC(=O)N1 (stereo not drawn)	52 to 54 °C
CCOC(=O)c1cc2cccnc2[nH]1	153 to 156 °C
Cc1c(C)c(-c2cccc(CO)c2)c(C)c(C)c1O	152 to 153 °C
O=C1NC(=O)c2c1c(-c1ccccc1Cl)cc1c2c2cc(O)ccc2n1CCS(=O)(=O)c1ncn[nH]1	301 to 304 °C
CCn1cc(C(=O)O)c(=O)c2cc(F)c(N3CCN(C(C)=O)CC3)cc21	300 °C
Cn1cc(C(=O)Nc2ccccc2OC(F)(F)C(F)Cl)c(C(F)(F)F)n1 (stereo not drawn)	94 to 95 °C
Cc1nc(-n2cccc(O)c2=O)sc1C(=O)NCc1ccccc1	225 to 228 °C
O=C1Cc2c(CCO)cccc2N1	145 to 147 °C
c1ccc(OCCSCc2nnc(-c3ccc(OCCN4CCOCC4)cc3)o2)cc1	70 to 72 °C
CCCc1cc(OCC)c2c(c1OC)S(=O)(=O)N(CCl)C2=O	131 to 133 °C
CCCCc1ccc(NC=O)c([N+](=O)[O-])c1	72 to 73 °C
CCc1nsc(C(=O)NC(C)C)c1C(=O)O	138 to 140 °C

###

List of melting point values.

compound	melting point
CCCCc1nc(Cl)c(CO)n1Cc1ccc(-c2ccccc2-c2nnnn2C(c2ccccc2)(c2ccccc2)c2ccccc2)cc1	95 to 98 °C
CCCCOC(=O)c1ccc2cc(O)ccc2c1	107 to 112 °C
Cn1cnc2cc3[nH]c(-c4ccncc4)nc3cc21	> 280 °C
O=C1c2cc(I)ccc2-n2c1nc1ccccc1c2=O	296 to 297 °C
O=C(NS(=O)(=O)c1cc(C(F)(F)F)ccc1Cl)c1cn2cc(C(F)(F)F)cnc2n1	211 to 212 °C
NC(=O)CN1C(=O)C(NC(=O)c2cc3ccccc3[nH]2)C(Cc2ccccc2)Sc2ccccc21 (centres undefined)	275 °C
CCC1CC2(C)C(O)CCC2C2CCc3cccc(O)c3C12 (centres undefined)	155 to 157 °C
COc1ccc(CNc2cc(Cl)ncc2C(=O)NCc2ncccn2)cc1Cl	134 to 136 °C
CCCc1cn(C)cc(-c2cccc(C(F)(F)F)c2)c1=O	45 to 47 °C

All values here come from a melting point compilation (Tetko et al.; mined from patent text by program, amines drawn as free bases though some values may be those of a salt).
